Data credit: patent US20260166158A1

I'd be grateful if you could share measured Liver uptake, % ID/g 24 h for these entries.
test system: NCI-H460 tumor-bearing mice (lung cancer); test: Biodistribution: lutetium accumulation in tumor, plasma and healthy tissues by ICP-MS; type: in vivo; conditions: second table; liver; 24 h
Numeric only. Scale: % ID/g

QUERY: What value of Liver uptake, % ID/g 24 h has been reported for the following compound? CCNC(=O)c1nnc(-c2cc(C(C)C)c(O)cc2O)n1-c1ccc(CN2CCN(C(=O)C[C@H](NC(=O)CCNC(=O)[C@@H](CO)NC(=O)[C@@H](CO)NC(=O)[C@@H](CO)NC(=O)CC[C@H](C(=O)O)N3CCN4CCN5CCN(CC3)CC(=O)[O][Lu]([O]C(=O)C5)[O]C(=O)C4)C(=O)N[C@H](C)C(=O)N3CCN(Cc4ccc(-n5c(C(=O)NCC)nnc5-c5cc(C(C)C)c(O)cc5O)cc4)CC3)CC2)cc1
RESULT: 1.99

QUERY: Tell me the measured Liver uptake, % ID/g 24 h of CCNC(=O)c1nnc(-c2cc(C(C)C)c(O)cc2O)n1-c1ccc(OC2CCN(C(=O)CCNC(=O)[C@@H](CCC(=O)N3CCC(Oc4ccc(-n5c(C(=O)NCC)nnc5-c5cc(C(C)C)c(O)cc5O)cc4)CC3)NC(=O)CCOCCOCCOCCOCCOCCOCCOCCOCCOCCOCCOCCOCCNC(=O)CN3CCN4CCN5CCN(CC3)CC(=O)[O][Lu]([O]C(=O)C4)[O]C(=O)C5)CC2)cc1 , please.
RESULT: 8.16

QUERY: Name the recorded Liver uptake, % ID/g 24 h for CCNC(=O)c1nnc(-c2cc(C(C)C)c(O)cc2O)n1-c1ccc(CN2CCN(C(=O)C[C@H](NC(=O)CCNC(=O)[C@H](CO)NC(=O)[C@H](CO)NC(=O)[C@H](CO)NC(=O)CC[C@H](C(=O)O)N3CCN4CCN5CCN(CC3)CC(=O)[O][Lu]([O]C(=O)C5)[O]C(=O)C4)C(=O)N[C@H](C)C(=O)N3CCN(Cc4ccc(-n5c(C(=O)NCC)nnc5-c5cc(C(C)C)c(O)cc5O)cc4)CC3)CC2)cc1 .
RESULT: 1.88

QUERY: Reported Liver uptake, % ID/g 24 h for CCNC(=O)c1nnc(-c2cc(C(C)C)c(O)cc2O)n1-c1ccc(CC2CCN(C(=O)CCC(=O)N[C@@H](CCCCNC(=O)CN3CCN4CCN5CCN(CC3)CC(=O)[O][Lu]([O]C(=O)C4)[O]C(=O)C5)C(=O)N3CCC(Cc4ccc(-n5c(C(=O)NCC)nnc5-c5cc(C(C)C)c(O)cc5O)cc4)CC3)CC2)cc1 : what is it?
RESULT: 11.53

QUERY: Which measured Liver uptake, % ID/g 24 h value corresponds to CCNC(=O)c1nnc(-c2cc(C(C)C)c(O)cc2O)n1-c1ccc(CC2CCN(C(=O)CCOCCOCCOCCOCCNC(=O)CN3CCN4CCN5CCN(CC3)CC(=O)[O][Lu]([O]C(=O)C4)[O]C(=O)C5)CC2)cc1 ?
RESULT: 1.83

QUERY: Data request, read-out Liver uptake, % ID/g 24 h, for CCNC(=O)c1nnc(-c2cc(C(C)C)c(O)cc2O)n1-c1ccc(OC2CCN(C(=O)CCOCCOCCOCCOCCNC(=O)CC[C@@H](C(=O)O)N(CC)CCN3CCN4CCN(C)CC(=O)[O][Lu]([O]C(=O)C4)[O]C(=O)C3)CC2)cc1
RESULT: 0.469

QUERY: So what's the measured Liver uptake, % ID/g 24 h for this one? CCNC(=O)c1nnc(-c2cc(C(C)C)c(O)cc2O)n1-c1ccc(OC2CCN(C(=O)CCOCCOCCOCCOCCOCCOCCOCCOCCOCCOCCOCCOCCNC(=O)CN3CCN4CCN5CCN(CC3)CC(=O)[O][Lu]([O]C(=O)C4)[O]C(=O)C5)CC2)cc1
RESULT: 0.69
